All figures here come from patent US20220009910A1.

Exercise: for every item that follows, state its recorded pKd.
Biological target: Tyk2 JH2 Pseudokinase (Homo sapiens, UniProt P29597)
Sequence (P29597 589-875 limits assumed): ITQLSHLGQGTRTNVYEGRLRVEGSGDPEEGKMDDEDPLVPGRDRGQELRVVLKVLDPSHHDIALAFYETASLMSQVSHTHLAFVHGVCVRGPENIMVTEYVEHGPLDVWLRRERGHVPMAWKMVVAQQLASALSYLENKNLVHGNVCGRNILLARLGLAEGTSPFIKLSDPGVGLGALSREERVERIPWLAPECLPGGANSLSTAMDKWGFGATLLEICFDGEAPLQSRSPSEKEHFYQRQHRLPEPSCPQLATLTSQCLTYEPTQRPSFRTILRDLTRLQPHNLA
Test: KdELECT Competition Binding Assay
Conditions: 11-point 3-fold dilution series, qPCR readout
Answers are plain numbers, as −log10 of the molar value.

Dear colleague, could you please provide pKd for the compounds listed below?
1. [2H]C([2H])([2H])NC(=O)c1nnc(NC(=O)C2CC2)cc1Nc1cc(N2CCC2=O)cc(-c2ncn(C)n2)c1OC [Example A3]
2. CNC(=O)c1nnc(NC(=O)C2CC2)cc1Nc1cc(N2CC(OC)C2)cc(-c2ncn(C)n2)c1OC [Example A2]
3. [2H]C([2H])([2H])NC(=O)c1nnc(NC(=O)C2CC2)cc1Nc1cc(N2CC(OC)C2)cc(-c2ncn(C)n2)c1OC [Example A1]
4. [2H]C([2H])([2H])NC(=O)c1nnc(NC(=O)C2CC2)cc1Nc1cc(OC2COC2)cc(-c2ncn(C)n2)c1OC [Example A4]

11.15
11.40
11.46
10.43
